- assaySummary: Cyto-toxicity (MTT assay)
- Type: cell-based
Below, each of the compounds is paired with its reported viability at 4 days, 0.01 µM value.
// return numeric value only (unit: %, not printed)

CC(C)C1=C2[C@H]3CC[C@@H]4[C@@]5(C)CC[C@H](OC(=O)[C@H]6C[C@@H](C(=O)O)C6(C)C)C(C)(C)[C@@H]5CC[C@@]4(C)[C@]3(C)CC[C@@]2(NC(=O)C(C)(C)NC(=O)OC(C)(C)C)CC1=O [Example 75] :: 63

Alright, here's another compound for you.
Exercise: # lookup: viability at 4 days, 0.01 µM of Cc1cnc(C(=O)NC(C)(C)C(=O)N[C@@]23CC[C@]4(C)[C@H](CC[C@@H]5[C@@]6(C)CC[C@H](OC(=O)[C@H]7C[C@@H](C(=O)O)C7(C)C)C(C)(C)[C@@H]6CC[C@]54C)C2=C(C(C)C)C(=O)C3)cn1 [Example 7]
Solution: 28

* * *

- assaySummary: Cyto-toxicity (MTT assay)
- Assay type: cell-based
- experimentalContext: 0.003 μM; MTT, 4 days (Table 3A); read-out: Cytotoxicity % viability
Where a name gives a salt, the structure may show the parent alone.
propertyName: viability at 4 days, 0.003 µM (%)
Record the value in %, omitting the unit from your answer.

Exercise: Please report the recorded viability at 4 days, 0.003 µM for CC(C)C1=C2[C@H]3CC[C@@H]4[C@@]5(C)CC[C@H](OC(=O)[C@H]6C[C@@H](C(=O)O)C6(C)C)C(C)(C)[C@@H]5CC[C@@]4(C)[C@]3(C)CC[C@@]2(NC(=O)C(C)(C)NC(=O)[C@H]2CCCNC2)CC1=O [Example 52, hydrochloride] .
Solution: 89

* * *

- assaySummary: Single dose oral pharmacokinetic study
- Type: in vivo
- experimentalContext: mouse; Mice oral PK @30 mg/kg; plasma; vehicle 10% Solutol+20% PEG; read-out: Cmax
propertyName: Cmax (ng/mL)
Write the value in ng/mL as a bare number.

Sample records with Cmax:
Cc1noc(C)c1C(=O)NC(C)(C)C(=O)N[C@@]12CC[C@]3(C)[C@H](CC[C@@H]4[C@@]5(C)CC[C@H](OC(=O)[C@H]6C[C@@H](C(=O)O)C6(C)C)C(C)(C)[C@@H]5CC[C@]43C)C1=C(C(C)C)C(=O)C2 [Example 19] :: 13900
Cc1cnc(C(=O)NC(C)(C)C(=O)N[C@@]23CC[C@]4(C)[C@H](CC[C@@H]5[C@@]6(C)CC[C@H](OC(=O)[C@H]7C[C@@H](C(=O)O)C7(C)C)C(C)(C)[C@@H]6CC[C@]54C)C2=C(C(C)C)C(=O)C3)cn1 [Example 7] :: 41900
Cc1cccc(NC(=O)NC(C)(C)C(=O)N[C@@]23CC[C@]4(C)[C@H](CC[C@@H]5[C@@]6(C)CC[C@H](OC(=O)[C@H]7C[C@@H](C(=O)O)C7(C)C)C(C)(C)[C@@H]6CC[C@]54C)C2=C(C(C)C)C(=O)C3)n1 [Example 72] :: 15300

Exercise: State the recorded Cmax for this entry: CC(C)C1=C2[C@H]3CC[C@@H]4[C@@]5(C)CC[C@H](OC(=O)[C@H]6C[C@@H](C(=O)O)C6(C)C)C(C)(C)[C@@H]5CC[C@@]4(C)[C@]3(C)CC[C@@]2(NC(=O)C(C)(C)NC(=O)Cc2ccc(Cl)cc2)CC1=O [Example 53]
Solution: 9750

* * *

Reported viability at 4 days, 0.01 µM values for the following molecules.
- assaySummary: Cyto-toxicity (MTT assay)
- Format: cell-based

Example entries and their recorded answers appear below.
CC(C)C1=C2[C@H]3CC[C@@H]4[C@@]5(C)CC[C@H](OC(=O)[C@H]6C[C@@H](C(=O)O)C6(C)C)C(C)(C)[C@@H]5CC[C@@]4(C)[C@]3(C)CC[C@@]2(NC(=O)C(C)(C)NC(=O)c2ccc(N3CCOCC3)cc2)CC1=O :: 29%
Cc1ccc(NC(=O)NC(C)(C)C(=O)N[C@@]23CC[C@]4(C)[C@H](CC[C@@H]5[C@@]6(C)CC[C@H](OC(=O)[C@H]7C[C@@H](C(=O)O)C7(C)C)C(C)(C)[C@@H]6CC[C@]54C)C2=C(C(C)C)C(=O)C3)cn1 :: 41%

As a next step, examine the molecule that follows.
Exercise: Recorded viability at 4 days, 0.01 µM for CC(C)C1=C2[C@H]3CC[C@@H]4[C@@]5(C)CC[C@H](OC(=O)[C@H]6C[C@@H](C(=O)O)C6(C)C)C(C)(C)[C@@H]5CC[C@@]4(C)[C@]3(C)CC[C@@]2(NC(=O)C(C)(C)NC(=O)c2ccc(Cl)cc2)CC1=O , please?
Solution: 57%
